Taken from patent US6376510B1.

Overview of recorded ΔBP (change in arterial blood pressure) for various compounds
# Tested on: rabbits
# MEASUREMENT_DESCRIPTION: In vivo neuromuscular block and cardiovascular side effects, rabbit (Example 8, Table 7)
# CONDITION_DETAILS: at 80-85% neuromuscular blocking dose

- COMPOUND: "CC(=O)Oc1ccc(C[N+]2(C)[C@@H]3CC[C@H]2C[C@@H](OC(=O)CCCC(=O)O[C@H]2C[C@H]4CC[C@@H](C2)[N+]4(C)Cc2ccc(OC(C)=O)c(OC(C)=O)c2)C3)cc1OC(C)=O.[Br-].[Br-] (stereo partly drawn)"
  ΔBP (change in arterial blood pressure): "0%"
- COMPOUND: "COc1cc(C[N+]2(C)[C@@H]3CC[C@H]2C[C@@H](OC(=O)C2CCC2C(=O)O[C@H]2C[C@H]4CC[C@@H](C2)[N+]4(C)Cc2ccc(OC(C)=O)c(OC)c2)C3)ccc1OC(C)=O.[Br-].[Br-] (stereo partly drawn)"
  ΔBP (change in arterial blood pressure): "0%"
- COMPOUND: "COc1cc(C[N+]2(C)[C@@H]3CC[C@H]2C[C@@H](OC(=O)C2CCCC(C(=O)O[C@H]4C[C@H]5CC[C@@H](C4)[N+]5(C)Cc4ccc(OC(C)=O)c(OC)c4)C2)C3)ccc1OC(C)=O.[Br-].[Br-] (stereo partly drawn)"
  ΔBP (change in arterial blood pressure): "0%"
- COMPOUND: "CCC(=O)Oc1ccc(C[N+]2(C)[C@@H]3CC[C@H]2C[C@@H](OC(=O)CCCC(=O)O[C@H]2C[C@H]4CC[C@@H](C2)[N+]4(C)Cc2ccc(OC(=O)CC)c(OC(=O)CC)c2)C3)cc1OC(=O)CC.[Br-].[Br-] (stereo partly drawn)"
  ΔBP (change in arterial blood pressure): "0%"
- COMPOUND: "CC[N+]1(C)[C@@H]2CC[C@H]1C[C@@H](OC(=O)CCCCC(=O)O[C@H]1C[C@H]3CC[C@@H](C1)[N+]3(C)CC)C2.[I-].[I-] (stereo partly drawn) [reference compound]"
  ΔBP (change in arterial blood pressure): "0%"
- COMPOUND: "CC(=O)Oc1ccc(C[N+]2(C)[C@@H]3CC[C@H]2C[C@@H](OC(=O)C2CCC2C(=O)O[C@H]2C[C@H]4CC[C@@H](C2)[N+]4(C)Cc2ccc(OC(C)=O)c(OC(C)=O)c2)C3)cc1OC(C)=O.[Br-].[Br-] (stereo partly drawn)"
  ΔBP (change in arterial blood pressure): "0%"
